- Run description: yeast display, Sf9 membrane polyspecificity reagent, FACS + sequencing; frameworks hold sequencing errors

Input sequence	polyreactivity (PSR sort gate)
QVQLVESGGGIVQAGGSLRLSCAASGRIFSEYAMGWYRQAPGKERELVARITSSGGSTSYADSVKGRFTISRDNAKNTVYLQMNSLNPVDTAVYYCAGDGVWRRFYYLHYYWGQGTQVTVSS	high polyreactivity
QVQLVESGGGLVQAGGSLRLSCAASGGTFYGYAAMGWYRQAPGKERELVAAISRSGGRTYYADSVKGRFTISRDNAKNTVYLQMNSLKPEDTAVYYCAARRAYSRPPRDYWGQCTQVTVSS	high polyreactivity

* * *

- Run description: yeast display, Sf9 membrane polyspecificity reagent, FACS + sequencing; frameworks hold sequencing errors
Measured parameter: polyreactivity (PSR sort gate)

Input sequence	Readout value
QVQLVESGGGLVQAGGSLLLSCAASGLTFERYVMVWYRQAPGKERELVSSISRSGSTYYADSVKGRFTISRDNAKNTVYLQMNSLKPEDTAVYYCNADRFWFHWVYSRYHYDYWGQGTQVTVSS	high polyreactivity
QVQLVETGGGLVQAGGSLRLSCAASGSTFYKYGMGWYRPAPGKERELVAAISGSGDSTYYADSVKGRFTISRDNAKNTVYLQMNSLKPEDTAVSYCNAGPWWFLHEYDYWGQGTQVTVSS	low polyreactivity
QVQLVESGGGLVQAGGSLRLSCAASGRIFDRNAMGWYRQAPGKERELVAAITRSGGRPYYADSVKGRFTISRDNAKNTVYLQMNSLKPEDTAVYYCNRGYPRSVVHYNSWGQGTQVTVSS	high polyreactivity
QVQLVESGGGLVQAGGSLRLSCAASGFIFRRYAMGWYRQAPGKERELVAAISWSGGSTYYADSVKGRFTISRDNAKNTVYLQMNSLKPEDTAVYYCAKVPTSASPYDHWGQGTQVTVSS	high polyreactivity
QVQLHESGGGLVQAGGSLRLSCAASGTISVTYNMGWYRQAPGKEREFVAGNSTGATTNYADSVKGRFTISRDNAKNTVYLQMNSLKPEDTAVYYCAAHIYRQDHFYYWGQGTQVTVSS	low polyreactivity
QVQLVESGGGLVQAGGSLRLSCAASGGIFSSYAMGGYRQAPGKERELVASISRRGTSTYYADSVKGRFTISRDNAKNTVYLQMNSLKPEDTAVYYCAAGTKYTSAVHFYYWGQGTQVTVSS	high polyreactivity
QVQLVESGGGLVQAGGSLRLSCAASGSIFVTNPMGWYRQAPGKERELVAAIRGGGGSTYYADSVKGRFTISRDNAKNTVYLQMNSLKPEDTAVYYCNADRRGYLQSEMDYWGQGTQVTVSS	low polyreactivity
QVQLVESGGGLVQAGGTLRLSCAASGIIFHWYAMGWYRQAPGKERELVAAITQSGGSTSYADSVKGRFTISRDNAKNTVYLQMNSLIPEDTAVYYCNAREVRDEYNYWGQGTQVTVSS	low polyreactivity
QVQLVESGGGLVQAGGSLRLSCAASGYILYGNTMGWYRQAAGKERELVAVISGGGSTNYADSVKGRFTISRDNAKNTVYLQMNSLKPQDTAVYYCAVKTNQAGYDYWGQGTQVTVSS	low polyreactivity
QVQLVESGGGLVQAGGSLRLSCAASGIIVDYYAMGWYRQAPGKERELVATITSGGSTNYADSVKGRFTISRDNAKNTVYLPMNSVKPEDTAVYYCAARTYWFPDIYPGLGMDYWGQGTQVTVSS	low polyreactivity

Field: polyreactivity (PSR sort gate). Fill in for each record below.
1. QVQLVESGGGLVQAGGSLRLSCAASGSIFHSYAMGWYRQAPGKETELVASITASGDSTYYADSVKGRFTISRDNAKNTVYLQMNSLKPEDTAVYYCNTQAVYGGGEGGYDYWGQCTQVTVSS
2. QVQHVESGGGLVQAGGSLRLSCDASGITFGHYTMGWYRQAHGKEREFVAAISWSGGSTYYADSVKGRFTISRDNAKNTVYLQMNSLKPEYTAVYYCNRVKPVIASYDSDYWGQGTQVTVSS
3. QVQLVESGGGLVQAGGSLRLSCAASGFIFRYYAMGWYRQAPGKERELVAAIDYSGGSTNYADSVKGRFTISRDYAKNTVYLQMNSQKPEDTAVYYCNAEYTWHRGYDYWGQGTQVTVSS
4. QVQLVESRGGLVQAGGSLRLSCAASGSIFSYYPMGWYRQAPGKERELVAAISSRGGSTYYADSVKGRFTISRDNAKNTFYLQMNCLKPEDTAVYYCDDEWTSWFGVTYDYWGQGTQVTVSS
5. QVQLVESGGGLVQAGGRLRLSCAASGRIFIKNAMGWYRQAPGKESELVAAISDSGDSTYYAVSVKGRFTISRDNAKNTVYLQMNSLKPEDTAVYYCAADGADHRSEMYYWGQGTQVTVSS
6. QVQLVESGGGLVQAGGRLRLSCAASGSIFRWYAMGLYRQAPGKERELVAAITSGGSTYYADSVKGRFTISRDNAKNCVYLQMNSLKPEDTAVYYCNAKTYYPPFGYWGQGTQVTVSS
7. QVQLVESGGGVVQAGGSLRLSCAASGRTFCIYAMGWYRPAPGKEREVVAAITGRGGSTHYADSVKGRFTISRDNAKNTVYLQMNSLKPEDTAVYYGAADYRYNRGITSNKDYDYWGQGTQVTVSS

Given back:
low polyreactivity
low polyreactivity
low polyreactivity
high polyreactivity
low polyreactivity
low polyreactivity
low polyreactivity

Field: polyreactivity (PSR sort gate). Fill in for each record below.
1. QVQLVESGGGLVQAGGSLRLSCAASGFTFRTNLMVWYRQAPGKERELVAVITRDGGSTYYADSVKGRFTISRDHAKNTVYLQINSLKPEDTAVYYCNAAAFINFILYDYWGQGTQVTVSS
2. QVQLVESGGGLVQAVGSLRLSCAASGRTFNSYTMGWYRQAPGKERELVAAISSGGSTTYADSVKGRFTISRDNAKNTVYLQMNSLKPEDTAVYYCAAGLVYRGYRRDYWGQGTQVTVSS

Given back:
["high polyreactivity", "low polyreactivity"]

Field: polyreactivity (PSR sort gate). Fill in for each record below.
1. QVQLVESGGGLVQAGGSLRLSCAASGSIFQWNAMGWYRQAPGKERELVAAISTRGGRTYYADSVKGRFTISRDNAKNTDYLQMNSLKPEDTAVYYCAKQYGSYGRYYKYYYWGQGTQVTVSS
2. QVQLVESGGGLVQAGGSLRLRCAASARTFAGYALGWYRQAPGKERELVAAITTGGSTKYADSVKGRFTISRDNAKNTVYLQMNSLKQEDTAVYYCAAESYYKYFNKYDYWGQGTQVTVSS

Given back:
high polyreactivity
high polyreactivity
